Compiled from multiple publications: pIC50 readings for UniProtKB P43405.
As a rule, pIC50 stands for the negative log10 of the concentration, concentration in M.

## Input Fill blank: measured pIC50 of the compound "CC(=O)N1CCO[C@H](COc2nc(-c3ccc(N4CCNCC4)c(C)c3)cc3nccnc23)C1" is ____.
## Output 6.96

## Input Check "C#CC(C)(C)c1cc(NC(=O)Nc2ccc(Oc3ccnc(Nc4cc(C(=O)NCCN5CCOCC5)cc(C(F)(F)F)c4)n3)c3ccccc23)n(-c2ccc(C)cc2)n1" too.
## Output 6.56

## Input Check "CC(C)(C)c1cc(NC(=O)Nc2ccc(Oc3ccnc(Nc4ccc5c(c4)COC5)n3)c3ccccc23)n(-c2ccc(OCCN3CCOCC3)cc2)n1" too.
## Output 7.89
